# test-details: CellTiter-Glo viability, PC-3
# Format: cell-based
# measurement-context: human, PC-3 cells; PC3, 600 nM; read-out: cell viability by CellTiter-Glo

[
  {
    "chemical-string": "O=C1NC(=O)C(c2cnc3ccccn23)=C1c1cn2c3c(cc(F)cc13)CN(C(=O)N1CCCCC1)CC2",
    "viability at 0.6 µM": "~100%"
  }
]

---

# test-details: CellTiter-Glo viability, MDA-MB-231
# Type: cell-based, human
# measurement-context: human, MDA-MB-231 cells, MDA-MB-231, 600 nM, cell line panel experiment (FIG. 9A)
measured-quantity: viability at 0.6 µM

[
  {
    "chemical-string": "O=C1NC(=O)C(c2cnc3ccccn23)=C1c1cn2c3c(cc(F)cc13)CN(C(=O)N1CCCCC1)CC2",
    "result": "95.5%"
  }
]

---

# test-details: CellTiter-Glo viability, HCT-116
# Format: cell-based
# measurement-context: human, HCT-116 cells; HCT-166 (so in the source), 600 nM; read-out: cell viability by CellTiter-Glo

[
  {
    "chemical-string": "O=C1NC(=O)C(c2cnc3ccccn23)=C1c1cn2c3c(cc(F)cc13)CN(C(=O)N1CCCCC1)CC2",
    "viability at 0.6 µM": "~97.7%"
  }
]

---

# test-details: CellTiter-Glo viability, A549
# Format: cell-based
# measurement-context: human, A549 cells; A549, 600 nM; read-out: cell viability by CellTiter-Glo
measured-quantity: viability at 0.6 µM (%)

[
  {
    "molecule": "O=C1NC(=O)C(c2cnc3ccccn23)=C1c1cn2c3c(cc(F)cc13)CN(C(=O)N1CCCCC1)CC2 [LY-2090314]",
    "measurement-unit": "%",
    "quantitative-result": 99.3
  }
]

Measured values drawn from patent US11942223B1 for this set.
